test system: NK1 receptor; assay type: cell-based, rabbit; settings: antagonistic power, rabbit vena cava
This section presents compounds with their documented pA2 NK1 values.
Returns: the value as a bare number; no unit string appended.

Example results:
| COMPOUND | TARGET ENTITY | pA2 NK1 |
| --- | --- | --- |
| CN(Cc1ccccc1)C(=O)[C@H](Cc1ccccc1)NC(=O)[C@@H](Cc1cn(C=O)c2ccccc12)NC(=O)C[C@H]1NC(=O)[C@@H]2Cc3ccccc3CN2C1=O [Example 6] | NK1 receptor | 6.87 |
| CN(Cc1ccccc1)C(=O)[C@H](Cc1ccccc1)NC(=O)[C@@H](Cc1cn(C=O)c2ccccc12)NC(=O)C[C@@H]1NC(=O)[C@H](Cc2ccccc2)N(C)C1=O [Example 7] | NK1 receptor | 6.87 |

Need pA2 NK1, item CN(Cc1ccccc1)C(=O)[C@H](Cc1ccccc1)NC(=O)C[C@@H]1NC(=O)[C@@H]2Cc3ccccc3CN2C1=O [Example 16, Cyclo(Tic--Asp)--Phe--N(CH3)CH2 C6 H5]
6.02

Need pA2 NK1, item CN(Cc1ccccc1)C(=O)[C@H](Cc1ccccc1)NC(=O)[C@@H]1C2CCC(CC2)N1C(=O)c1c[nH]c2ccccc12 [Example 31]
7.34

Need pA2 NK1, item CN(Cc1ccccc1)C(=O)[C@H](Cc1ccccc1)NC(=O)[C@@H](Cc1cn(C(=O)CCCCCCN)c2ccccc12)NC(=O)C[C@@H]1NC(=O)[C@@H]2C3CCC(CC3)N2C1=O [Example 38]
6.70

====

target: NK2 receptor (Oryctolagus cuniculus, UniProt P79218); construct: three smooth muscle preparations were used; from tissue; host or cells: rabbit pulmonary artery without endothelium (isolated smooth muscle); assay: Bio assay on isolated smooth muscle: rabbit pulmonary artery without endothelium; assay type: cell-based; conditions: antagonistic power, read-out: pA2 NK2 (converted)
Sequence (P79218 whole entry): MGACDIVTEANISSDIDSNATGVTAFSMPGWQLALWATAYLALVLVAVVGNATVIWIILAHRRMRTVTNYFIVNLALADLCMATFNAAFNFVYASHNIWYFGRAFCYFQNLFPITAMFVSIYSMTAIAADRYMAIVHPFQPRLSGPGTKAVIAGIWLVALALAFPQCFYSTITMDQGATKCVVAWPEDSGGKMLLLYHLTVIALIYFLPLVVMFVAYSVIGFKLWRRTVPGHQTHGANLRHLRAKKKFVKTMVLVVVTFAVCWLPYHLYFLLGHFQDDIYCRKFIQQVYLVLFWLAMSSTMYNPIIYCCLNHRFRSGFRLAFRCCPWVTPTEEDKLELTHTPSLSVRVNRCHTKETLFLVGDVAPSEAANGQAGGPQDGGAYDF
ENDPOINT NAME: Kb (µM)
Quick note: give the figure in µM, leave out the unit.

| STRUCTURE SMILES | UNIT STRING | NUMERIC RESULT |
| --- | --- | --- |
| CN(Cc1ccccc1)C(=O)[C@H](Cc1ccccc1)NC(=O)[C@@H]1C2CCC(CC2)N1C(=O)c1c[nH]c2ccccc12 | µM | 13.8 |

Now for the molecule whose Kb we want.
Form entry - test system: NK2 receptor (Oryctolagus cuniculus, UniProt P79218); read-out: Kb; molecule: CN(Cc1ccccc1)C(=O)[C@H](Cc1ccccc1)NC(=O)[C@@H](Cc1c[nH]c2ccccc12)NC(=O)C[C@@H]1NC(=O)[C@@H]2C3CCC(CC3)N2C1=O
1
